pIC50 overview
Target: Neuropeptide Y receptor type 5 (Homo sapiens)
Sequence (Q15761 whole entry): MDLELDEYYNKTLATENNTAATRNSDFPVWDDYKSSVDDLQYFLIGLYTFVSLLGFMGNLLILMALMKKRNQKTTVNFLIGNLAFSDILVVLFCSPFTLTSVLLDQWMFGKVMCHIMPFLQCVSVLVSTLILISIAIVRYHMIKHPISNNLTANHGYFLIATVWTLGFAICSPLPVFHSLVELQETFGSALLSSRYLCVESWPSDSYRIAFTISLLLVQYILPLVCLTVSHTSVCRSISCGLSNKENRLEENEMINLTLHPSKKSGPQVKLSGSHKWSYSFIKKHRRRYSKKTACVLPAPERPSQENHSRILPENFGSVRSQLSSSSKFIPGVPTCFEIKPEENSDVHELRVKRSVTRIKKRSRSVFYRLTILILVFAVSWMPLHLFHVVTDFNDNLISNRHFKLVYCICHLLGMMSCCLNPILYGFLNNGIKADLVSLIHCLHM
Test: Binding affinity for human Neuropeptide Y receptor type 5 in HEK293 cells
// pIC50 is dimensionless: -log10 of concentration (M)

Worked cases, answers included:
>  <Compound>
O=C(NC1=NC2CCc3cc(Cl)ccc3C2C1)[C@H]1CC[C@H](CNS(=O)(=O)c2ccccc2)CC1 (some centres undefined)

>  <System tested>
Neuropeptide Y receptor type 5 (Homo sapiens)

>  <Data value>
6.95

$$$$
>  <Compound>
O=S(=O)(NC[C@H]1CC[C@H](CNC2=NC3CCc4cc(Cl)ccc4C3C2)CC1)c1ccccc1 (some centres undefined)

>  <System tested>
Neuropeptide Y receptor type 5 (Homo sapiens)

>  <Data value>
7.27

$$$$
>  <Compound>
COc1ccc2c(c1)CCC1N=C(NC(=O)[C@H]3CC[C@H](CNS(=O)(=O)c4ccccc4)CC3)CC21 (some centres undefined)

>  <System tested>
Neuropeptide Y receptor type 5 (Homo sapiens)

>  <Data value>
7.04

$$$$
>  <Compound>
COc1ccc2c(c1)CCC1N=C(NC[C@H]3CC[C@H](CNS(=O)(=O)c4ccccc4)CC3)CC21 (some centres undefined)

>  <System tested>
Neuropeptide Y receptor type 5 (Homo sapiens)

>  <Data value>
7.24

$$$$
>  <Compound>
COc1ccc2c(c1)CCC1N=C(NC[C@H]3CC[C@H](CNS(=O)(=O)c4ccccc4F)CC3)CC21 (some centres undefined)

>  <System tested>
Neuropeptide Y receptor type 5 (Homo sapiens)

>  <Data value>
7.46

$$$$
>  <Compound>
O=S(=O)(NC[C@H]1CC[C@H](CNC2=NC3CCc4cc(O)ccc4C3C2)CC1)c1ccccc1 (some centres undefined)

>  <System tested>
Neuropeptide Y receptor type 5 (Homo sapiens)

>  <Data value>
9.00

$$$$
>  <Compound>
COc1ccc2c(c1)CCC1N=C(NC(=O)[C@H]3CC[C@H](CNS(=O)(=O)c4ccccc4F)CC3)CC21 (some centres undefined)

>  <System tested>
Neuropeptide Y receptor type 5 (Homo sapiens)

>  <Data value>
6.92

$$$$

The record that follows has no pIC50 shown yet.
For reference, reported pIC50 for O=S(=O)(NC[C@H]1CC[C@H](CNC2=NC3CCc4ccccc4C3C2)CC1)c1ccccc1 (some centres undefined) stands at 7.41

The origin of these recorded values is ChEMBL document CHEMBL1133370.
